Molecular target: Stat3:Stat3 DNA-binding activity (Mus musculus, UniProt P42227)
Construct: endogenous in cells; host or cells: NIH3T3/v-Src fibroblasts; EGF-stimulated NIH3T3/hEGFR fibroblasts (nuclear extracts)
Sequence (P42227 2-770 limits assumed): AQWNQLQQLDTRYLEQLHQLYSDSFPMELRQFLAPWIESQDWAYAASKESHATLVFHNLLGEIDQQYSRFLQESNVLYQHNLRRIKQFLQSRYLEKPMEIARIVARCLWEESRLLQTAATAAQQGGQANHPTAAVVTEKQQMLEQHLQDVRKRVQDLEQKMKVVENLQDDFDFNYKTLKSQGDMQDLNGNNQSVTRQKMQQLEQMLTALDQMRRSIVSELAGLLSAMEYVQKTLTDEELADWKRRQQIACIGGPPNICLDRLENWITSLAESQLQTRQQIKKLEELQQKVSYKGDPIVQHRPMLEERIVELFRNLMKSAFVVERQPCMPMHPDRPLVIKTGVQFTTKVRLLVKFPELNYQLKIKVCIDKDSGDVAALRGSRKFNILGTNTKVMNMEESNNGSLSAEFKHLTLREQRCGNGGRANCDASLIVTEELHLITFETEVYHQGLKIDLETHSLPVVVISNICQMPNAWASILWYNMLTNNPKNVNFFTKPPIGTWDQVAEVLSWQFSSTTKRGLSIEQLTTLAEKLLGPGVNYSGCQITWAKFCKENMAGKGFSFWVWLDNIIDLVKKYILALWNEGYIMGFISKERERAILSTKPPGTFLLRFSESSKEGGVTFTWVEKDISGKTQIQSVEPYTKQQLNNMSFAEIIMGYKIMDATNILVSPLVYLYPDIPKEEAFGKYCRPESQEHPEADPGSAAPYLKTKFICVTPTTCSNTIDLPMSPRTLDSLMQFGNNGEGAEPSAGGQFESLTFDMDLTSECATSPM
Experiment: EMSA of Stat3:Stat3 DNA-binding activity in nuclear extracts
Assay type: biochemical
Details: EMSA, incubation time 60 min before hSIE probe; read-out: Stat3:Stat3 IC50
PROPERTY NAME: pIC50
On this scale, pIC50 is minus log10 of a concentration expressed in M (mol/L).

So what does the record say about pIC50 for `O=C([C@H]1CCN1S(=O)(=O)c1c(F)c(F)c(F)c(F)c1F)N(Cc1ccc(C2CCCCC2)cn1)c1ccc2c(=O)[nH]ncc2c1` ? 6.42

---

Assay: Plasma stability, mouse
Assay type: in vitro ADME
Conditions: 1 h
PROPERTY NAME: remaining at 1 h (%)
Return type: number; implicit unit %.

So what does the record say about remaining at 1 h for `O=C([C@H]1CCN1S(=O)(=O)c1c(F)c(F)c(F)c(F)c1F)N(Cc1ccc(C2CCCCC2)cn1)c1ccc2c(=O)[nH]ncc2c1` ? 69

---

pIC50: recorded values
Biological target: Stat1:Stat3 DNA-binding activity (Mus musculus, UniProt P42227)
Construct: endogenous in cells
Sequence (P42227 2-770 limits assumed): as the sequence (P42227 2-770 limits assumed) above
Sequence (P42225 2-749 partner limits assumed): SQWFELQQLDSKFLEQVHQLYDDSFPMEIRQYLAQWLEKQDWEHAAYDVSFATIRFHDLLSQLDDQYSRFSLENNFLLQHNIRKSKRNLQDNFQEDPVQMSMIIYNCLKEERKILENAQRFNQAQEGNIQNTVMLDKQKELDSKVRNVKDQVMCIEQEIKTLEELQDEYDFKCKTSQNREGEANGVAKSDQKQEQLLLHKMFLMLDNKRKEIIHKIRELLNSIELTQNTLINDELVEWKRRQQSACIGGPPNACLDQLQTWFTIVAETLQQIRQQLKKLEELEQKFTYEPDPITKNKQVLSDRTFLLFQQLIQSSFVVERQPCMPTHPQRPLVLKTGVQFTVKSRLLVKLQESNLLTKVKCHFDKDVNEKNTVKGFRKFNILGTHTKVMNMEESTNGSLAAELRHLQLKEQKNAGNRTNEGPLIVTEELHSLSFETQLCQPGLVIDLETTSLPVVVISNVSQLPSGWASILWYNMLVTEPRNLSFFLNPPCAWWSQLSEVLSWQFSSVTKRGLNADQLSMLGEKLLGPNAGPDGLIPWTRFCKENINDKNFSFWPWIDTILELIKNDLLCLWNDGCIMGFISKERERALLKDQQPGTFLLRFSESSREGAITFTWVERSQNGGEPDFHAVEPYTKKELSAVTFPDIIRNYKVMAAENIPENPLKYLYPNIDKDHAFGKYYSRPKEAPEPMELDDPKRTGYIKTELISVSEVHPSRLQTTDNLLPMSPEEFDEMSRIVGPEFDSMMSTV
Experiment: EMSA of Stat1:Stat3 DNA-binding activity in nuclear extracts of EGF-stimulated NIH3T3/hEGFR
Details: Fig. 1C, hSIE probe, 30 min
On this scale, pIC50 is minus log10 of a concentration expressed in M (mol/L).

Here are 2 compounds together with their reported answers.
[[record]]
molecule = "O=C([C@H]1CCN1S(=O)(=O)c1c(F)c(F)c(F)c(F)c1F)N(Cc1ccc(C2CCCCC2)cn1)c1ccc2c(=O)[nH]ncc2c1"
target_desc = "Stat1:Stat3 DNA-binding activity (Mus musculus, UniProt P42227)"
property_name = "pIC50"
observed_measurement = 5.47

[[record]]
molecule = "O=C(NO)c1ccc(N(Cc2ccc(C3CCCCC3)cc2)C(=O)[C@H]2CCN2S(=O)(=O)c2c(F)c(F)c(F)c(F)c2F)c(F)c1"
target_desc = "Stat1:Stat3 DNA-binding activity (Mus musculus, UniProt P42227)"
property_name = "pIC50"
observed_measurement = 5.08


Turning now to a further compound:
So what does the record say about pIC50 for `O=C(NO)c1ccc(N(Cc2ccc(C3CCOCC3)cc2)C(=O)[C@H]2CCN2S(=O)(=O)c2c(F)c(F)c(F)c(F)c2F)cc1O` ? 5.14

---

Molecular target: Stat3:Stat3 DNA-binding activity (Mus musculus)
Construct: endogenous in cells; host or cells: NIH3T3/v-Src fibroblasts; EGF-stimulated NIH3T3/hEGFR fibroblasts (nuclear extracts)
Assay: EMSA of Stat3:Stat3 DNA-binding activity in nuclear extracts
Assay type: biochemical
Conditions: EMSA, NIH3T3/v-Src nuclear extracts, 30-min incubation at room temperature before hSIE probe; read-out: Stat3:Stat3 IC50
PROPERTY NAME: IC50 (µM)
Return type: number; implicit unit µM.

So what does the record say about IC50 for O=C([C@H]1CCN1S(=O)(=O)c1c(F)c(F)c(F)c(F)c1F)N(Cc1ccc(C2CCCCC2)cn1)c1ccc2c(=O)[nH]ncc2c1 [Compound H182] ? 0.66

---

Biological target: CYP2C9 (Homo sapiens, UniProt P11712)
Construct: Eurofins-CEREP (contract research organisation that ran the assay)
Sequence (P11712 whole entry, species assumed): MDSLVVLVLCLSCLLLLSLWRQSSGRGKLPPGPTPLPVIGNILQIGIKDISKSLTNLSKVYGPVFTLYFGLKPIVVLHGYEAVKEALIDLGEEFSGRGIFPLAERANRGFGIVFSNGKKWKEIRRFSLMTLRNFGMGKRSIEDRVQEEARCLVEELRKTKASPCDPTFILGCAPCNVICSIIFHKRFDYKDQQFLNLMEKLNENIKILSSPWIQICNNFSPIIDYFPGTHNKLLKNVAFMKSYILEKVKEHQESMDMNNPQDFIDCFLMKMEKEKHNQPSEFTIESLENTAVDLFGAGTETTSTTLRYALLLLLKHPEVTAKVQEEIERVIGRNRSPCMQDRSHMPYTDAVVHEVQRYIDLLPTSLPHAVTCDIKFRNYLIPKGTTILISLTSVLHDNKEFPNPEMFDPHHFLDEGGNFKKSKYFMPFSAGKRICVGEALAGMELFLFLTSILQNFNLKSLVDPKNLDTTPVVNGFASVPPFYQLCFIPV
Assay: CYP inhibition, CYP2C9
Type: in vitro ADME
Conditions: read-out: CYP Inhibition CYP2C9 % Inh at 10 μM
PROPERTY NAME: inhibition at 10 µM (%)
Return type: number; implicit unit %.

So what does the record say about inhibition at 10 µM for `O=C([C@H]1CCN1S(=O)(=O)c1c(F)c(F)c(F)c(F)c1F)N(Cc1ccc(C2CCCCC2)cn1)c1ccc2c(=O)[nH]ncc2c1` ? 33
